Data origin, for the record: PubChem BioAssay (NCI)

test system: HCT-116 colon; test: NCI tumour cell line growth inhibition, 48 h
Overview of recorded log10 of TGI for various compounds
Use the decimal logarithm of TGI (µM).

Answered examples (4):
Compound: NC(=S)N/N=C/c1cc(-c2cccc(N)c2)ccn1
Tested on: HCT-116 colon
Measured: 1.44
//
Compound: OCCNCCOc1ccc(/C(=C(/Cl)c2ccccc2)c2ccccc2)cc1
Tested on: HCT-116 colon
Measured: 1.31
//
Compound: CC/C=C/C/C=C/C/C=C/C/C=C/C/C=C/C/C=C/CCC(=O)Nc1ccn([C@@H]2O[C@H](CO)[C@@H](O)C2(F)F)c(=O)n1
Tested on: HCT-116 colon
Measured: 1.47
//
Compound: CC(=O)OC1C2CCC1C1C2C2(Cl)C(Cl)=C(Cl)C1(Cl)C2(Cl)Cl (stereo not drawn)
Tested on: HCT-116 colon
Measured: 1.44

Query: Please tell me the measured log10 of TGI for COc1ccc2c(c1)C(C)Cc1c(ncnc1-n1cnc3cc(C)ccc31)N2C (stereo not drawn) ; system: HCT-116 colon.
Response: 1.17

Query: Please tell me the measured log10 of TGI for COCOc1ccc(C2(O)Oc3cc(OCOC)ccc3C2C)c(O)c1 (stereo not drawn) ; system: HCT-116 colon.
Response: 1.44

Query: Please tell me the measured log10 of TGI for CC1=CC(=O)CC2(C)CCC(C(C)CC(=O)CC(C)C)CC12 (stereo not drawn) ; system: HCT-116 colon.
Response: 1.48

Query: Please tell me the measured log10 of TGI for C[C@]12CC[C@H](O)C=C1CC[C@@H]1[C@@H]2CC[C@]2(C)C(c3ccc(=O)oc3)CC[C@]12O (stereo partly drawn) ; system: HCT-116 colon.
Response: -1.17

Query: Please tell me the measured log10 of TGI for COC(=O)C1OC(O[C@H]2CC[C@]3(C)[C@H]4CC=C5[C@@H]6CC(C)(C)CC[C@]6(C(=O)OC6OCC(O)C(O)C6OC6OC(C)C(OC7OCC(OC8OCC(O)C(O)C8O)C(O)C7O)C(O)C6O)[C@H](O)C[C@@]5(C)[C@]4(C)CC[C@H]3C2(C)C)C(O)C(O)C1O (stereo partly drawn) ; system: HCT-116 colon.
Response: 1.11
